Tested on: PC-3 prostate
METHOD_NOTES: NCI tumour cell line growth inhibition, 48 h
Parameter: GI50. Scope: all listed entries.
PROPERTY: GI50

CCN(CC)CCCNc1ccc(C)c2sc3ccccc3c(=O)c12: 0.758 µM
O=C(/C=C/C12c3ccccc3C(c3ccccc31)C1C(=O)NC(=O)C12)c1ccccn1 (configuration not stated): 1.67 µM
CNCc1cccc2c1OCCOCCOCCN(C)S(=O)(=O)c1ccc(cc1)-c1cnc(N)c(n1)C(=O)N2: 1.94 µM
O=C1c2cccc(Oc3ccccc3)c2C(=O)c2cccc(Oc3ccccc3)c21: > 100 µM
CCCCCOc1ccc(/C=N/Nc2cc(C)nc3ccc(Cl)cc23)cc1: 1.61 µM
CSC1=Nc2c(c(C)c(C)n2COC(CO)CO)C2=NC(=O)CN12: > 100 µM
COc1cc2nc(-c3ccc(Cl)cc3)cc(OCCCN3CCOCC3)c2cc1OC: 2.63 µM
Nc1nc2c(c3cnccc13)C(c1ccc(Cl)c(Cl)c1)Cc1cnccc1-2 (configuration not stated): 0.544 µM
c1ccc(-c2c(-c3ccccc3)[n+](Cc3ccc4ccccc4c3)c(-c3ccc(-c4nc5ccccc5s4)cc3)n2Cc2ccc3ccccc3c2)cc1: 0.111 µM
CN(C)CCCC1(c2ccc(F)cc2)OCc2cc(-c3cccc4[nH]ccc34)ccc21 (configuration not stated): 1.58 µM
COC(=O)OC1C(O[C@H]2C[C@H]3[C@@H]4CC=C5C[C@@H](O)CC[C@]5(C)[C@H]4CC[C@]3(C)[C@H]2[C@H](C)C(=O)CCC(C)C)OCC(O)C1OC1OCC(O)C(O)C1OC(=O)c1ccc(OC)cc1 (some centres not stated): 0.00436 µM
COc1ccc2sc3c(NCCCN)nc4ccccc4c3c(=O)c2c1: 1.5 µM
